tested on: Fibrosarcoma Meth A; assay: Test Method B: intrapleurally inoculated Meth A tumor in mice, injection into pleural cavity, mean survival time; type: in vivo, BALB/c mice; parameters: dose or concentration left out as unconfirmed; conditions: comparison of mean survival time of medicated group (T) and control group (C); into pleural cavity three times
Here, each record is paired with measured Anti-tumor activity (%) *d data.
Numeric answer only, unit % assumed.

Known Anti-tumor activity (%) *d results, listed for orientation:
compound: CCCCCCCCCCCCCCCCCCOCC(COP(=O)([O-])OCC[n+]1cccc(C)c1)OC (racemic)
Anti-tumor activity (%) *d: 364
--
compound: CCCCCCCCCCCCCCCCCCOCC(COP(=O)([O-])OCC[n+]1ccccc1)OCC (racemic)
Anti-tumor activity (%) *d: 317
--
compound: CCCCCCCCCCCCCCCCCCOCC(COP(=O)([O-])OCC[n+]1cccn1C)OC (racemic)
Anti-tumor activity (%) *d: 325
--
compound: CCCCCCCCCCCCCCCCCCOCC(COP(=O)([O-])OCC[n+]1ccccc1)OC (racemic)
Anti-tumor activity (%) *d: 367
--
compound: CCCCCCCCCCCCCCCCCCOCC(COP(=O)(O)OCCN1CCN(C)CC1)OC (racemic)
Anti-tumor activity (%) *d: 350

So for CCCCCCCCCCCCCCCCCCOCC(COP(=O)(O)OCCN1CCN(C)CC1)OCC (racemic) , the logged Anti-tumor activity (%) *d turned out to be 342

So for CCCCCCCCCCCCCCCCCCOCC(COP(=O)([O-])OCC[n+]1ccccc1)SC (racemic) , the logged Anti-tumor activity (%) *d turned out to be 358

* * *

tested on: Fibrosarcoma Meth A; experiment: Test Method B: intrapleurally inoculated Meth A tumor in mice, injection into pleural cavity, mean survival time; type: in vivo, BALB/c mice; parameters: dose or concentration left out as unconfirmed; details: comparison of mean survival time of medicated group (T) and control group (C); into pleural cavity three times
metric name: Anti-tumor activity (%) *d
Numeric answer only, unit % assumed.

Known Anti-tumor activity (%) *d results, listed for orientation:
molecule: CCCCCCCCCCCCCCCCCCOCC(COP(=O)(O)OCCN1CCN(CC)CC1)OC (racemic) [3-(3)]
tested system: Fibrosarcoma Meth A
measurement unit: %
Anti-tumor activity (%) *d: 317

molecule: CCCCCCCCCCCCCCCCCCOCC(COP(=O)(O)OCCN1CCN(CCO)CC1)OC (racemic) [3-(7)]
tested system: Fibrosarcoma Meth A
measurement unit: %
Anti-tumor activity (%) *d: 325

molecule: CCCCCCCCCCCCCCCCCCOCC(COP(=O)([O-])OCC[N+](C)(C)C)OC (racemic) [*e, reference compound]
tested system: Fibrosarcoma Meth A
measurement unit: %
Anti-tumor activity (%) *d: 242

molecule: CCCCCCCCCCCCCCCCCCOCCCOP(=O)([O-])OCC[n+]1ccccc1 [3-(29)]
tested system: Fibrosarcoma Meth A
measurement unit: %
Anti-tumor activity (%) *d: 264

molecule: CCCCCCCCCCCCCCCCCCOCC(COP(=O)([O-])OCC[n+]1ccccc1)Sc1nncs1 (racemic) [8-(4)]
tested system: Fibrosarcoma Meth A
measurement unit: %
Anti-tumor activity (%) *d: 417

Value sought: Anti-tumor activity (%) *d, system Fibrosarcoma Meth A, item CCCCCCCCCCCCCCCCCCOCC(COP(=O)([O-])OCC[n+]1ccc(C)cc1)OC (racemic) [3-(9)] . Result: 350

Value sought: Anti-tumor activity (%) *d, system Fibrosarcoma Meth A, item CCCCCCCCCCCCCCCCCCOCC(COP(=O)([O-])OCC[n+]1ccccc1)NC(=O)NC (racemic) [11-(2)] . Result: 350

* * *

test system: Fibrosarcoma Meth A; experiment: Test Method B: intrapleurally inoculated Meth A tumor in mice, injection into pleural cavity, mean survival time; assay type: in vivo, BALB/c mice; design: dose or concentration left out as unconfirmed; settings: comparison of mean survival time of medicated group (T) and control group (C); into pleural cavity three times
Here, each record is paired with measured Anti-tumor activity (%) *d data.
Numeric answer only, unit % assumed.

molecule: CCCCCCCCCCCCCCCCCCOCC(COP(=O)([O-])OCCNC(=O)C[n+]1ccccc1)OC (racemic)
Anti-tumor activity (%) *d: 364
--
molecule: CCCCCCCCCCCCCCCCCCOCC(COP(=O)(O)OCCN1CCCCC1)OC (racemic)
Anti-tumor activity (%) *d: 325
--
molecule: CCCCCCCCCCCCCCCCOCC(COP(=O)(O)OCCN1CCN(C)CC1)OC (racemic)
Anti-tumor activity (%) *d: 350

Let us move to another entry and its Anti-tumor activity (%) *d.
So for CCCCCCCCCCCCCCCCCCOCC(COP(=O)([O-])OCC[n+]1ccccn1)OC (racemic) , the logged Anti-tumor activity (%) *d turned out to be 333
